System: PC-3 cells
Assay: In vitro cytotoxicity, CCK-8 assay, PC-3 cells
Assay type: cell-based, human
Settings: PC-3; androgen-insensitive human prostate cancer cell line; CCK-8; 24 h exposure; mean ± SD of three experiments
property_name: IC50

Worked set:
O=C1c2ccccc2S(=O)(=O)N1Cc1ccc(CCN2CCN(c3ncccn3)CC2)cc1 [Compound 6] : 4.84 µM
N#Cc1ccc(N2CCN(CCc3ccc(CN4C(=O)c5ccccc5S4(=O)=O)cc3)CC2)cc1 [Compound 20] : 2.66 µM
COc1ccc(N2CCN(CCc3ccc(CN4C(=O)c5ccccc5S4(=O)=O)cc3)CC2)cc1 [Compound 10] : 4.38 µM
N#Cc1ccccc1N1CCN(CCc2ccc(CN3C(=O)c4ccccc4S3(=O)=O)cc2)CC1 [Compound 19] : > 50 µM

INPUT: Request body: readout IC50, system PC-3 cells, query O=C1c2ccccc2S(=O)(=O)N1Cc1ccc(CCN2CCN(c3ccc(Br)cc3)CC2)cc1 [Compound 18] . Return the value.
OUTPUT: 2.25 µM

INPUT: Request body: readout IC50, system PC-3 cells, query O=C1c2ccccc2S(=O)(=O)N1Cc1ccc(CCN2CCN(c3ccc(F)cc3)CC2)cc1 [Compound 12] . Return the value.
OUTPUT: > 50 µM

INPUT: Request body: readout IC50, system PC-3 cells, query Cc1cccc(N2CCN(CCc3ccc(CN4C(=O)c5ccccc5S4(=O)=O)cc3)CC2)c1 [Compound 7] . Return the value.
OUTPUT: > 50 µM

INPUT: Request body: readout IC50, system PC-3 cells, query COc1ccccc1N1CCN(CC(O)COc2cccc3ccccc23)CC1 (centres unmarked) [Naftopidil, reference compound] . Return the value.
OUTPUT: 42.1 µM

---

Below is a list of entries, each paired with its recorded pIC50 value.
Tested on: PC-3 cells
Experiment: In vitro cytotoxicity, CCK-8 assay, PC-3 cells
Type: cell-based, human
Conditions: PC-3; androgen-insensitive human prostate cancer cell line; CCK-8; 24 h exposure; mean ± SD of three experiments
pIC50: −log10 of the molar value.

Worked set:
O=C1c2ccccc2S(=O)(=O)N1Cc1ccc(CCN2CCN(c3ccccc3F)CC2)cc1 [Compound 11] : < 4.30
O=C1c2ccccc2S(=O)(=O)N1Cc1ccc(CCN2CCN(c3ccc(Cl)cc3)CC2)cc1 [Compound 16] : < 4.30
O=C1c2ccccc2S(=O)(=O)N1Cc1ccc(CCN2CCN(c3ccccn3)CC2)cc1 [Compound 5] : < 4.30
O=C1c2ccccc2S(=O)(=O)N1Cc1ccc(CCN2CCN(c3cccc(Cl)c3Cl)CC2)cc1 [Compound 17] : < 4.30
COc1cccc(N2CCN(CCc3ccc(CN4C(=O)c5ccccc5S4(=O)=O)cc3)CC2)c1 [Compound 9] : 5.27
O=C1c2ccccc2S(=O)(=O)N1Cc1ccc(CCN2CCN(c3ccc(C(F)(F)F)cc3)CC2)cc1 [Compound 21] : 5.43

INPUT: Give its pIC50 value. Item: O=C1c2ccccc2S(=O)(=O)N1Cc1ccc(CCN2CCN(c3ccccc3Cl)CC2)cc1 [Compound 14]
OUTPUT: 4.84

INPUT: Give its pIC50 value. Item: O=C1c2ccccc2S(=O)(=O)N1Cc1ccc(CCN2CCN(c3ccccc3)CC2)cc1 [Compound 4]
OUTPUT: < 4.30

INPUT: Give its pIC50 value. Item: Cc1ccc(N2CCN(CCc3ccc(CN4C(=O)c5ccccc5S4(=O)=O)cc3)CC2)cc1 [Compound 8]
OUTPUT: < 4.30

INPUT: Give its pIC50 value. Item: O=C1c2ccccc2S(=O)(=O)N1Cc1ccc(CCN2CCN(c3cccc(Cl)c3)CC2)cc1 [Compound 15]
OUTPUT: 5.56

INPUT: Give its pIC50 value. Item: O=C1c2ccccc2S(=O)(=O)N1Cc1ccc(CCN2CCN(c3ccc(F)cc3F)CC2)cc1 [Compound 13]
OUTPUT: < 4.30

---

Below is a list of entries, each paired with its recorded IC50 value.
System: DU145 cells
Assay: In vitro cytotoxicity, CCK-8 assay, DU145 cells
Format: cell-based, human
Details: androgen-insensitive human prostate cancer cell line; CCK-8; 24 h exposure; mean ± SD of three experiments
Give your result in nM as a bare value.

O=C1c2ccccc2S(=O)(=O)N1Cc1ccc(CCN2CCN(c3ccc(F)cc3)CC2)cc1 : 1140

INPUT: Give its IC50 value. Item: O=C1c2ccccc2S(=O)(=O)N1Cc1ccc(CCN2CCN(c3ccccc3)CC2)cc1
OUTPUT: 1280

Where do the numbers come from? From paper PMC6150201.
